Entries and their measured binding ratio vs parent P54AR4-83v2 follow.
Molecular target: EGFR (form in the assay not stated) (human, UniProt P00533 25-645, limits assumed)
Test: ELISA, NEM conjugate 500 nM
Form entry: value (ratio) — number only.

Binder: P54AR4-83v2 K5C, NEM conjugate (designed binder, NEM on Cys 5, His-tagged) LPAPCNLVVSEVTEDSARLSWDDPWAFYESFLIQYQESEKVGEAIVLTVPGSERSYDLTGLKPGTEYTVSIYGVHNVYKDTNMRGLPLSAIFTT
Measurement: 0.92

Binder: P54AR4-83v2 T13C, NEM conjugate (designed binder, NEM on Cys 13, His-tagged) LPAPKNLVVSEVCEDSARLSWDDPWAFYESFLIQYQESEKVGEAIVLTVPGSERSYDLTGLKPGTEYTVSIYGVHNVYKDTNMRGLPLSAIFTT
Measurement: 0.9

Binder: P54AR4-83v2 D22C, NEM conjugate (designed binder, NEM on Cys 22, His-tagged) LPAPKNLVVSEVTEDSARLSWCDPWAFYESFLIQYQESEKVGEAIVLTVPGSERSYDLTGLKPGTEYTVSIYGVHNVYKDTNMRGLPLSAIFTT
Measurement: 0.9

Now let's try a different one.
IN: Entry P54AR4-83v2 E43C, NEM conjugate (designed binder, NEM on Cys 43, His-tagged) LPAPKNLVVSEVTEDSARLSWDDPWAFYESFLIQYQESEKVGCAIVLTVPGSERSYDLTGLKPGTEYTVSIYGVHNVYKDTNMRGLPLSAIFTT needs its binding ratio vs parent P54AR4-83v2 filled in; supply it.
OUT: 0.92

Cited source for all entries: patent US20170362301A1
